experimentalTarget: human recombinant HDAC6 (Homo sapiens)
Construct: purchased Calbiochem 382180
Sequence (Q9UBN7 whole entry): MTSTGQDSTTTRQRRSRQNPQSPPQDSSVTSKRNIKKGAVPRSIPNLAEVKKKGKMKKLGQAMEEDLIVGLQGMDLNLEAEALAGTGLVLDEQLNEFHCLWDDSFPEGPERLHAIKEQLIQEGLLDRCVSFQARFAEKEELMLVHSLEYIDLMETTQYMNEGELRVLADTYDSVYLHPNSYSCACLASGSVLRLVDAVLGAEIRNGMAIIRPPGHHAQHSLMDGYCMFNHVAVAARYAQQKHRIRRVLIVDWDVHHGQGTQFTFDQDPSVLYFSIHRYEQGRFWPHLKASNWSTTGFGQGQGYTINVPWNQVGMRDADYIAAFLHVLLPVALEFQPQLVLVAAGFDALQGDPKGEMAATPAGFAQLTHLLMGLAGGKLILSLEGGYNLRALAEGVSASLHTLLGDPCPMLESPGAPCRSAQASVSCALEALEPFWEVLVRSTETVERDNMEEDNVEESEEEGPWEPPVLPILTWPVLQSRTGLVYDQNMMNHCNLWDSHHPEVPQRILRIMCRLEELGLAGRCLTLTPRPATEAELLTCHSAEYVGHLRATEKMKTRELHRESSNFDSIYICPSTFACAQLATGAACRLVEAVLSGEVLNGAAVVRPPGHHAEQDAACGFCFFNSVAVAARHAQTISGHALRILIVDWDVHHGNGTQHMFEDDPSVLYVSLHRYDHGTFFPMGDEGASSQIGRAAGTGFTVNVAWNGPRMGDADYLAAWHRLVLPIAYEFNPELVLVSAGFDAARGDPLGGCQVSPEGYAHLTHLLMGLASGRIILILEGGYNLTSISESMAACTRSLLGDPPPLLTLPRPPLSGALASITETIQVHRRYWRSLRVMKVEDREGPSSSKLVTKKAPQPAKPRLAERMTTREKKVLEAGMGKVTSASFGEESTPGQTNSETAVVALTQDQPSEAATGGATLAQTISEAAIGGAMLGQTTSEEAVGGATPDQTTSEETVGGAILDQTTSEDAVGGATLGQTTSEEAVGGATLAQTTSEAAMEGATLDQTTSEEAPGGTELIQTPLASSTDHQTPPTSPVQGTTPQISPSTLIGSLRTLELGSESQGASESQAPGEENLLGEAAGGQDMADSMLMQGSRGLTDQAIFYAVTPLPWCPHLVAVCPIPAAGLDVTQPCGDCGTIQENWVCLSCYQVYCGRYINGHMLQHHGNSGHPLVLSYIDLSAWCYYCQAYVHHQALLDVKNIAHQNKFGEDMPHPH
assay: HDAC6 enzyme activity inhibition assay (HDAC Fluorimetric Drug Discovery Kit)
Format: biochemical
conditionSet: HDAC6 over HDAC1
measurementKind: HDAC6 selectivity (fold)

Ask: Request: HDAC6 selectivity (fold), test system human recombinant HDAC6 (Homo sapiens), entry O=C(NCCN1CCN(c2ccc(Cl)c(Cl)c2)CC1)N(Cc1ccc(-c2nnc(C(F)F)o2)cc1F)c1ccccc1
Reply: 10 fold

Ask: Param readout = HDAC6 selectivity (fold); param system = human recombinant HDAC6 (Homo sapiens); param query = Cc1ccc(N(Cc2ccc(-c3nnc(C(F)F)o3)cn2)C(=O)N2CCOCC2)c(F)c1 ; response: value
Reply: 248 fold

Ask: Recorded HDAC6 selectivity (fold) for COc1cccc(N(Cc2ccc(-c3nnc(C(F)F)o3)cc2F)C(=O)N2CCS(=O)(=O)CC2)c1 with human recombinant HDAC6 (Homo sapiens), please?
Reply: 323 fold

Ask: Lab request: please report HDAC6 selectivity (fold) under test system human recombinant HDAC6 (Homo sapiens) for CCCCN(Cc1ccc(-c2nnc(C(F)F)o2)cc1)C(=O)Nc1ccccc1
Reply: 24 fold
